assayed-system: Cytochrome P450 2C19 (Homo sapiens)
test: Cytochrome panel assay with activity outcomes
cond: recombinant CYP, pro-luciferin dealkylation, luminescence, p450-cyp2c19; series mostly up to 57.1 µM
Out of some 16,000 compounds screened, about 5,800 (36%) were called active. Not shown: some 23% with an inconclusive outcome. Calls follow the shape of the dose curve; as a rule, active = well fitted curve in the direction sought with a large enough effect; inconclusive = small, poorly fitted or top-dose-only effect, or effect the other way; inactive = no such curve, though single readings can be large or run the other way. The list shows a part of the results.
Write down the outcome that applies. Available outcomes: active, inactive

{"compound": "COc1ccc(/C=C2\\SC(=O)N(CCNC(=O)C3CC(=O)N(c4ccccc4)C3)C2=O)cc1 (stereo not given)", "qualitative-label": "active"}
{"compound": "c1ccc(SCc2nc3ccccc3[nH]2)cc1", "qualitative-label": "active"}
{"compound": "Cc1nnc(-c2cnn(-c3ccccc3)c2N)n1Cc1ccc(F)cc1", "qualitative-label": "active"}
{"compound": "COC(=O)c1cc(OC)c(OC)cc1NC(=S)N1CCCCC1", "qualitative-label": "active"}
{"compound": "CCn1c(SCc2nc3ccccc3[nH]2)nnc1-c1ccc(OC)cc1", "qualitative-label": "active"}

What did the test return for CCCN(CCC)CCCNC(=O)c1ccc2c(c1)N(CC)C(=O)c1ccccc1S2=O (stereo not given) ? inactive

And then `CCOC(=O)c1ccc(NC(=O)Nc2ccc3c4c(cccc24)C(=O)N3CC)cc1` , what is it? active
